- testMethodNotes: in vivo
- Design: species or system female CD-1 mice (Mus musculus L.)
- conditionsUsed: female, CD-1, mouse, in vivo, po, 8 mg/kg, Tmax
endpointName: Tmax (h)
Your answer is read as h, so omit the unit and give the number.

Query (compound): O=c1cc(-c2ccc(O)cc2)oc2cc(O)cc(O)c12 ; field requested: Tmax 1.5

###

- testMethodNotes: in vivo
- Set-up: species or system female CD-1 mice (Mus musculus L.)
- conditionsUsed: female, CD-1, mouse, in vivo, po, 8 mg/kg
endpointName: AUC(0-t)
Put your answer as a value accompanied by its unit after it.

Query (compound): O=c1cc(-c2ccc(O)cc2)oc2cc(O)cc(O)c12 ; field requested: AUC(0-t) 2120 ng·h/mL

Numbers sourced from paper PMC12525650.
